Test system: A. niger (ATCC 16404)
Assay: Antifungal susceptibility, MIC by broth macro-dilution method
Type: cell-based, Aspergillus niger
Conditions: RPMI 1640 medium with MOPS buffer, end points after 48 hours, NI till x = no inhibition up to x
Procedure: In vitro evaluation of antifungal activity was performed by determining the minimum inhibitory concentration (MIC). Anti-fungal susceptibility testing of these anti-fungal compounds was done by broth dilution method using RPMI 1640 medium with MOPS buffer. Known anti-fungal agents like fluconazole and amphotericin-B were used as positive control. End points were determined after 48 hours visually and by using spectrophotometer wherever necessary. […]
OBSERVED PROPERTY: MIC against fungi, A. niger (ATCC 16404)

CCCCCc1sc2ncn(CC(O)(Cn3cncn3)c3ccc(F)cc3F)c(=O)c2c1C (centres unmarked) :: NI till 2 μg/ml
O=c1c2c3c(sc2ncn1CC(O)(Cn1cncn1)c1ccc(F)cc1F)CCC3 (centres unmarked) :: NI till 2 μg/ml
O=c1c2c3c(sc2ncn1CC(O)(Cn1cncn1)c1ccc(F)cc1F)CCCCCCCCCC3 (centres unmarked) :: NI till 2 μg/ml
